- measurement-protocol: Pharmacokinetic study of CdG in rats after i.v. and p.o. administration
- Type: in vivo, Male Sprague-Dawley rats
- applied-conditions: male, Sprague-Dawley, rat, plasma, po, 1 mg/kg
experimental-readout: Cmax (µg/mL)
Only the number, expressed in µg/mL, is required.

Input line: // Cmax lookup, key: N#C[C@]1(CO)O[C@@H](n2cnc3c(=O)[nH]c(N)nc32)C[C@@H]1O [CdG, 4′-cyano-2′-deoxyguanosine]
Output line: 0.0538

* * *

- measurement-protocol: Pharmacokinetic study of CdG in rats after i.v. and p.o. administration
- Type: in vivo, Male Sprague-Dawley rats
- applied-conditions: male, Sprague-Dawley, rat, plasma, po, 1 mg/kg, t1/2, rats, CdG alone
experimental-readout: half-life (min)
Quick note: give the figure in min, leave out the unit.

Input line: Please look up its half-life: N#C[C@]1(CO)O[C@@H](n2cnc3c(=O)[nH]c(N)nc32)C[C@@H]1O
Output line: 42

* * *

- measurement-protocol: Pharmacokinetic study of CdG in rats after i.v. and p.o. administration
- Format: in vivo, Male Sprague-Dawley rats
- applied-conditions: male, Sprague-Dawley, rat, plasma, iv, 1 mg/kg, t1/2, rats
experimental-readout: half-life (min)
Numbers only here, please. The scale is min.

Input line: Reported half-life, compound N#C[C@]1(CO)O[C@@H](n2cnc3c(=O)[nH]c(N)nc32)C[C@@H]1O : ____
Output line: 30

* * *

- measurement-protocol: Pharmacokinetic study of CdG in rats after i.v. and p.o. administration
- Type: in vivo, Male Sprague-Dawley rats
- applied-conditions: male, Sprague-Dawley, rat, plasma, iv, 1 mg/kg
experimental-readout: clearance (mL/min/kg)
Only the number, expressed in mL/min/kg, is required.

Input line: May I ask what clearance has been recorded for N#C[C@]1(CO)O[C@@H](n2cnc3c(=O)[nH]c(N)nc32)C[C@@H]1O [CdG, 4′-cyano-2′-deoxyguanosine] ?
Output line: 141

* * *

- measurement-protocol: Pharmacokinetic study of CdG in rats after i.v. and p.o. administration
- Format: in vivo, Male Sprague-Dawley rats
- applied-conditions: male, Sprague-Dawley, rat, plasma, po, 1 mg/kg
experimental-readout: Tmax (min)
Dear colleague, please return just the value in min, with no unit written.

Input line: Look up Tmax for this compound: N#C[C@]1(CO)O[C@@H](n2cnc3c(=O)[nH]c(N)nc32)C[C@@H]1O [CdG, 4′-cyano-2′-deoxyguanosine]
Output line: 45
